- target-or-test-system: T1, human C5 R885C-mmh (human, UniProt P01031 19-1676)
- T1 construct: also called human C5 variant R885C
- procedure-text: SPR, mAb captured via anti-hFc, 37C
One threshold, 0.001 s⁻¹, splits the recorded koff values: lower ones are rule met, equal or higher ones are rule not met.

Solved cases below.
- binder: "H4H12169P (antibody, human IgG4, V domains shown, Human IgG4 Fc with S108P hinge mutation (H4H)) VH: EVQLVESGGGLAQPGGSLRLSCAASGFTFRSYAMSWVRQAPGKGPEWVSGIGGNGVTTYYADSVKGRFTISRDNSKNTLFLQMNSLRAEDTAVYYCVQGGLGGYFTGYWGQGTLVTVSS VL: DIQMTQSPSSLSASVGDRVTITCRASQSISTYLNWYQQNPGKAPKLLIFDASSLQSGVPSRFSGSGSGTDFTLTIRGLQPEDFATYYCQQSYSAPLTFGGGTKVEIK"
  assigned-category: "rule met"
- binder: "H4H12164P (antibody, human IgG4, V domains shown, Human IgG4 Fc with S108P hinge mutation (H4H)) VH: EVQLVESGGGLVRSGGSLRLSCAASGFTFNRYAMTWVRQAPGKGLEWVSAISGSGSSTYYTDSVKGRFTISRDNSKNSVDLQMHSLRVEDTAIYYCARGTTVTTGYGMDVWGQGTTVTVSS VL: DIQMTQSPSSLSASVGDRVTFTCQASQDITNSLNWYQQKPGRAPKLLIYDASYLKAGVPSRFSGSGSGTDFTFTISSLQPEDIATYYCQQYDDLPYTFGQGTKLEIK"
  assigned-category: "rule not met"
- binder: "H4H12163P (antibody, human IgG4, V domains shown, Human IgG4 Fc with S108P hinge mutation (H4H)) VH: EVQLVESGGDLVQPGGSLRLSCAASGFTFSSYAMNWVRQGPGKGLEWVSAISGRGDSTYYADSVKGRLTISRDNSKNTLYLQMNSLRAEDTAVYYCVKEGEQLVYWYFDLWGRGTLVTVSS VL: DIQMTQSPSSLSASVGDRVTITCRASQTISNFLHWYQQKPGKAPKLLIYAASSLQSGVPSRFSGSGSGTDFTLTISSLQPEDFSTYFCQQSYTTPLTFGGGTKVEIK"
  assigned-category: "rule not met"
- binder: "H4H12167P (antibody, human IgG4, V domains shown, Human IgG4 Fc with S108P hinge mutation (H4H)) VH: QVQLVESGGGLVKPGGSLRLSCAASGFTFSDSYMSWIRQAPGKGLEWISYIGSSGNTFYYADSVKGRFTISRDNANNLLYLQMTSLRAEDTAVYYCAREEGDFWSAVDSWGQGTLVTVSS VL: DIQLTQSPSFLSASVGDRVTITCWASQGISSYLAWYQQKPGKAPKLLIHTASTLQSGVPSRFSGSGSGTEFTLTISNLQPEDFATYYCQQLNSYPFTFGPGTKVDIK"
  assigned-category: "rule not met"
- binder: "H4H12171P (antibody, human IgG4, V domains shown, Human IgG4 Fc with S108P hinge mutation (H4H)) VH: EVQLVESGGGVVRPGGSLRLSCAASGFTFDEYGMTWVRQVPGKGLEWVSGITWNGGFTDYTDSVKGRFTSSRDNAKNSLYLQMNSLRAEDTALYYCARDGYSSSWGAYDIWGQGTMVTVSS VL: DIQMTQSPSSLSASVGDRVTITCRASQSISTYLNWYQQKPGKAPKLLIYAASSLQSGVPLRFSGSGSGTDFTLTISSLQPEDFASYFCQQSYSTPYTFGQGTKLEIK"
  assigned-category: "rule met"

Prompt: For this binder, is koff lower than 0.001 s⁻¹? H4H12168P (antibody, human IgG4, V domains shown, Human IgG4 Fc with S108P hinge mutation (H4H)) VH: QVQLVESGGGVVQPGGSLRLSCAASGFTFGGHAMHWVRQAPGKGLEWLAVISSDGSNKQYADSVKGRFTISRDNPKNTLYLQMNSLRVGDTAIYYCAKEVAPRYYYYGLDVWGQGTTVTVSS VL: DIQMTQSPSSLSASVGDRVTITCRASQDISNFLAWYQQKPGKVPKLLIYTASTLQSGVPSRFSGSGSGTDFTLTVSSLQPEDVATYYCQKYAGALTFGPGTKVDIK
Response: rule met

Prompt: # TODO verify koff < 0.001 s⁻¹ strictly for this binder: H4H11683N (antibody, V domains shown, also called H2M11683N) VH: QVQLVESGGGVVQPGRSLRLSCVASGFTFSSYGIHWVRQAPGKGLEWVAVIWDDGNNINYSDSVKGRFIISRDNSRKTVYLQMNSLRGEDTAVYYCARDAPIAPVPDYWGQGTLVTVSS VL: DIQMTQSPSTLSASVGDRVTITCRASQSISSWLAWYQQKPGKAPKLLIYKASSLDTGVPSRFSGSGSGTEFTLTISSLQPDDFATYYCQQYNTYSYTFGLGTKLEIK
Response: rule not met
